assay: folding stability dG unfold (combined trypsin and chymotrypsin); higher = more stable
Measured property: folding stability dG unfold (kcal/mol)
Answers are plain numbers, in kcal/mol.

SAGGSASNLKVTYKITIGSTTITVTLPEGSEKELKKIPNAEVTPISEIEPAPPPILYFKFENNNLVSAGGSA [r15_443_JUSTAS]    1.09
SAGELELELELEFELEDGYRVEVRLRLRVRPDGSVRMELEVRIEPLPPPPPVRVVVVREDDPEALRALSAGG [r19_12_TrROS_Hall]    3.6
SAGGSAGGSAGLFIPETGLLVVYDPAPGTLHVFRITGGDGLEIEPVGEVEVDPDNPELGTAFSAGGSAGGSA [r18_448_TrMRF]    0.327
KTIEIWIPMPMGQAETFVKSLARKLGLPPDDYKVDNVEMQPNKDGWPYVKMEIKLPNNGKEIEIIMPPGWFS [r1_21_TrROS]    2.38

Consider the following items and state reported folding stability dG unfold for each.
1. SAGGMLIIRIEIEIEKNGKKEKKEILIVAKTEEEAKKAAEKIAKEKGLKIKKIEILPFKSLEELKKALSAGG [r13_949_TrROS_Hall]
2. SAGGSAGGSAMKKVTITLLDPRNGKEHTVTLPADITEEEAKAAAEAVAAERGWEVLSIEFEPSAGGSAGGSA [r18_322_JUSTAS]

result:
3.11
3.57

###

experiment: folding stability dG unfold from chymotrypsin proteolysis; higher = more stable
Measured property: folding stability dG unfold (kcal/mol)
One number for each entry, in kcal/mol.

Some solved cases for reference:
SAGGSAGGSAGGSKTKTISFPMPWDDIPELAEELKDKGPVTIEHQDPDGNPREFTIPPDSAGGSAGGSAGGS [r4_341_TrROS]    0.484
SAGNPDKPPKPRTYTLEIEIKLPPGDPDQAKELAHEIAHEIRDLGIKDTEVEYDPGNGRVRISITFTFWSAG [r5_512_TrROS]    3.49

Consider the following items and state reported folding stability dG unfold for each.
1. SAGGSAGGSAMLYRITVRNADGEKLEIVVEMSEDEVRALAEELRKAGYEVRVEPIPEGEEPSAGGSAGGSAG [r3_35_TrROS_Hall]
2. SAGGGSMVEKTISTTDPKYVKILKKLEEAPEDEVVTIKEPNKDIEVLSFDKVDDNYKLLMKLPPSILSAGGS [r16_404_JUSTAS]

result:
4.79
-0.454

###

assay: folding stability dG unfold from trypsin proteolysis; higher = more stable
Measured property: folding stability dG unfold (kJ/mol)
One number for each entry, in kJ/mol.

Some solved cases for reference:
SAGGEETVTLELELEFEPGMTEEELEEKARELAEALAEELGLEVEVEVRVERDEDGRVRVTVEVRVKSAGGS [r16_279_TrROS_Hall]    12.3
SAGGSAGGSAGSIVLTKTEILPGPENRPIIKTTIYKPPGPITITYPGGDPSKLVIETNSGSAGGSAGGSAGG [r17_64_JUSTAS]    1.03
SAMVEVRIEYDEETGEIRIEVRAEEEGEELTEEEIEELARELAEELGLPVEIKEIRVEKAPEVEEVVLESAG [r14_556_TrROS_Hall]    4.39

Pending sequence:
query: # return recorded folding stability dG unfold for entry SVPPFLNLPEAAKALAKAKPGPPVPRLTFPVTTDDPEEALEEILKQYPHLHPDKIKRVEVGDGYLTVEFGSA [r9_723_TrMRF]
result: -3.92

###

assay: folding stability dG unfold from trypsin proteolysis; higher = more stable
Respond with true for folding stability dG unfold values of 2 kcal/mol and above, false for values below.

Reference set (5 entries):
SAKGTLELTFPTTKVTVEVEKVDPVNNKVYARAVFPNGFVVDAVFDPKTGKVYVEVKEVKPTKDGGYSLSAG [r14_466_TrMRF]    false
SAGGSAGGSANYMIKITIEYTPPNGKKEEVEVTVPGMPIDQLLNNLPPEYPVEIKDIEIYPGSAGGSAGGSA [r18_32_TrROS]    false
SAGGSAGGSSQRIKIEDIEPPPNGQWRVRIKMPNGKEREVTMPPDKLEIELPPNITDVSLWPVSAGGSAGGS [r20_194_TrROS]    true
SAGGSAGGSAGGAEKFKVLSVSWDLGKGKRYGVLEVERPDGPLLTIVVPLSYPDKLKELASAGGSAGGSAGG [r7_365_TrMRF]    false
SDEDLEILRVEATPDTIRILFKIPSNPDLYIEVPITVFEDETSRRILINARILRPETGEVIAEIPFEIPLSA [r9_18_TrMRF]    true

query: Decide: folding stability dG unfold of SAGGSAMTPEEARARAEAIAEELAAEARAAGRAAEVTVEVTELPPELYRFTITFPGRTREVLLPVESAGGSA [r15_432_JUSTAS] >= 2 kcal/mol?
result: false

###

test: folding stability dG unfold (combined trypsin and chymotrypsin); higher = more stable
Respond with T for folding stability dG unfold values of 3 kcal/mol and above, F for values below.

Reference set (3 entries):
SAGGSAGGSAMKTIEIDIVIKNKETGEYYKAKAKIFENEDGSLIIEIEFEKNGKTLLIVLPPSAGGSAGGSA [r18_426_TrROS_Hall]    T
SAGKKLIIRVEVYRREKNENGEIKKVTETLEVPPGATIEELVKALAPPGYTIRIEIIENGKIIETIEIKSAG [r5_278_TrROS_Hall]    T
PFPIYVKIERDGKPVREEPIPMDELQEMPVEEVIEYARELLRQFPGRKYKVEVYFPGGPREFEIKDPEDIKS [r1_477_TrROS]    F

query: Decide: folding stability dG unfold of SAPLEQLLEFAEEFAQAYGYRVEIEVYRNGEPKGTYEIPMPKPGQPPVSIMIRIPDPNLYIHVTIYMPRSAG [r14_728_TrROS] >= 3 kcal/mol?
result: F

query: Decide: folding stability dG unfold of SAGGSAGGSAGGSKKKFKVKVIEKKPTTFPDGGVLVDYKVEIPETGALFDLKLTYTGEASAGGSAGGSAGGS [r4_94_TrMRF] >= 3 kcal/mol?
result: F

query: Decide: folding stability dG unfold of SAGGSAGGSATVTVTETNEDGEETTTEVEVFEVKPPPAPVLKVEAVIDPETNELVDVKVELFASAGGSAGGS [r12_539_TrROS_Hall] >= 3 kcal/mol?
result: F

query: Decide: folding stability dG unfold of MLVVEVPAEELSPEQVRERIRAALRAAREAGIRDARIVIVVEASEEQRERLRRELRELAEEEGLEVEIVERS [r1_387_TrROS_Hall] >= 3 kcal/mol?
result: T

###

For each entry below, report its folding stability dG unfold value.
assay: folding stability dG unfold (combined trypsin and chymotrypsin); higher = more stable
One number for each entry, in kcal/mol.

Some solved cases for reference:
SAGGSAGGTISFPNATATITVEENSVTITVTNADGQPTTFTIPLPIPKAKPFTLPDGTKLYLIASAGGSAGG [r6_806_TrMRF]    2.31
SAGGMITLEEPELDPSRPVTRVKVLTEIPAPGGVPVVVETTYTDTRAPGDPSVTVVTSTTTVVPGAAGSAGG [r13_131_JUSTAS]    -0.834
SAGGSAKVIMFPSLEEALDLAKEAMGHGKPIQIFLPDGYMIEIEVKPDPDGKPKIDIKWRKLPPDDSAGGSA [r15_761_TrROS]    2.55
SAGGSAGGSAGPTLTLTLPPGKLSPEFLEALAAQGYTLGEVTVTEVPEDDTVVVTVTTAPSAGGSAGGSAGG [r11_345_JUSTAS]    1.1

Consider the following items and state reported folding stability dG unfold for each.
1. MRVVFEATYTDPEGVPVTETFVIPEEVLEEIEREGRPITREELVELAEEIIRDYTKEHDADVEFRFVEFEPS [r1_174_TrMRF]
2. SAGMKVPVTVKMKAEKEEELEKVIKEIKEETGFEFEVEKNPETKEYTVKVYATPEVVEILKKKGFDVESAGG [r19_306_TrMRF]
3. SAVIPLEELARKVAEELGLEPVEVLEVIPEEGVVVMRFEGAVIVVKVDPETGEAEVEIVVFDPETGKPVSAG [r14_270_TrMRF]

result:
[2.27, 2.77, 3.16]

###

For each entry below, report its folding stability dG unfold value.
assay: folding stability dG unfold from trypsin proteolysis; higher = more stable

Some solved cases for reference:
SAGGSAGGSMKVVVTAKLPGGEVLQKTIPVDESVLKKMSKEEVIELLKKEGLPENVEIKFEPKSAGGSAGGS [r12_742_JUSTAS]    1.34 kcal/mol
SAGGSAGGSAGGSITITTEPLPSGGRRVTVTLPGSSVVLELEFSPDETEEEVRAAVEAASAGGSAGGSAGGS [r10_825_JUSTAS]    1.47 kcal/mol

Consider the following items and state reported folding stability dG unfold for each.
1. SATIEIPIKVNDRKFRISIERMPDGWIKIQIRDPNMPKDAVKDALREILGPGWKIDTDPETNTIYIPFKSAG [r14_370_TrROS]
2. SAPKIEILEVDPNRVLIKIDATPEEIEKIVEEIKKKFPGVKVETEKLEGEKKYLIKVIPVPEVPEELKKSAG [r14_600_TrMRF]

result:
1: 2.41 kcal/mol; 2: 0.0352 kcal/mol
